Data provenance is patent US20230365675A1.

# target: Mutant CD33-GFP M10 (Y127A) on 293FT cells (UniProt P20138)
# Sequence (P20138 18-364 Y127A): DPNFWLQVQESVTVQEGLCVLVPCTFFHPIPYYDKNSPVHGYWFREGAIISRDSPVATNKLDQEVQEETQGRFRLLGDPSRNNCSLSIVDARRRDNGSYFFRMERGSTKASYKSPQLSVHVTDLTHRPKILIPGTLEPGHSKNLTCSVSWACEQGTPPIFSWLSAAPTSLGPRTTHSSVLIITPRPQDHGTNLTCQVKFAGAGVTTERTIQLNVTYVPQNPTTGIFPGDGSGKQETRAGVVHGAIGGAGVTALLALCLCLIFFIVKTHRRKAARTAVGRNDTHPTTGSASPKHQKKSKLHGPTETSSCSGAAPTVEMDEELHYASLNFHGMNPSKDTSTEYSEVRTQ
# test-protocol: FACS, mutant CD33-GFP on 293FT cells
Output 1 (yes) for records whose FACS binding data is lower than 90, 0 (no) for records at or above 90.

1) sdCD33_4 (VHH) VHH: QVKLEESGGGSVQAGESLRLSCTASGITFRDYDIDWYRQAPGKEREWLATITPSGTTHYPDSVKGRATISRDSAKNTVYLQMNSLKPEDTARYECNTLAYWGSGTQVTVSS: 0 (no)
2) sdCD33_11 (VHH, sdAb from a naive llama phage library; also called 430; sdAb430) VHH: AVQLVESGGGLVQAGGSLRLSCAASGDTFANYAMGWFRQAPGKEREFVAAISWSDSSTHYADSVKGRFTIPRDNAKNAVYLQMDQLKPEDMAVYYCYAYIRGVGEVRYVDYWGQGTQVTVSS: 0 (no)
3) sdCD33_8 (VHH, sdAb from a naive llama phage library; also called 424; sdAb424) VHH: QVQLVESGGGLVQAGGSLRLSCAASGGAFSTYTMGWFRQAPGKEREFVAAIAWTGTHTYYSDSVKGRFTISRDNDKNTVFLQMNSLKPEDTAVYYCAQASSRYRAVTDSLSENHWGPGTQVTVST: 1 (yes)
4) sdCD33_7 (VHH, sdAb from a naive llama phage library; also called 420; sdAb420) VHH: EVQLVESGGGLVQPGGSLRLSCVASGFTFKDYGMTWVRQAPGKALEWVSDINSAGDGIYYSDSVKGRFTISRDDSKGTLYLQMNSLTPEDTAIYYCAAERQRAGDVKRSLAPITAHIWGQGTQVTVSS: 0 (no)
5) sdCD33_10 (VHH) VHH: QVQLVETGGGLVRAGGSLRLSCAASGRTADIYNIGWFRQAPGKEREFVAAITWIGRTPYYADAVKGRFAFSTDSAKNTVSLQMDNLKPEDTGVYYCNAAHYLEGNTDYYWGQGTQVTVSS: 0 (no)
